Origin of values: patent US6608082B1

# TARGET_SYSTEM: MCR-1 (Homo sapiens)
# Construct: expressed in transfected cells; host or cells: HEK 293
# Sequence (Q01726 whole entry): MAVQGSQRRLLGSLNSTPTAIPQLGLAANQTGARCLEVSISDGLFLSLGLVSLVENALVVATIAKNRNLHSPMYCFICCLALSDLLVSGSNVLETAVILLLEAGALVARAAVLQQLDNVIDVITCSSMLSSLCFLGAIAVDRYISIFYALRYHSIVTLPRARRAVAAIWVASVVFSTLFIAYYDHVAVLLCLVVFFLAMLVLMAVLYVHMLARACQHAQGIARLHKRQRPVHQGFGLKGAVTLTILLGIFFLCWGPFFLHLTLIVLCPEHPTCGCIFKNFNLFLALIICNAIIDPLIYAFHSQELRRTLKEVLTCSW
# ASSAY_NAME: Melanocortin receptor binding assay, competition with 125I-HP 467, HEK 293 cells expressing hMCR-1
# TEST_SETTINGS: displacement of 125I-HP 467 at 10 μM isoquinoline compound; first of duplicate
Assign % Disp. MC-1 10 μM to each entry below.
Numbers only, in %.

Use the examples below as a reference point.
# COMPOUND, OBSERVED_PROPERTY, UNIT_STRING, READOUT_VALUE
records = [
    ("CNC(CN)CN1Cc2ccccc2C(CNC2CCCCC2)C1c1ccc2ccccc2c1 (stereo not drawn) [TRG 2405-110]", "% Disp. MC-1 10 μM", "%", 59.5),
    ("CNC(CN)CN1Cc2ccccc2C(CNC2CCCCC2)C1c1cccc([N+](=O)[O-])c1 (stereo not drawn) [TRG 2405-139]", "% Disp. MC-1 10 μM", "%", 40.3),
]

// for each compound in input: emit % Disp. MC-1 10 μM
1. COc1ccc(C2C(CNC3CCCCC3)c3ccccc3CN2CCN)cc1 (stereo not drawn) [TRG 2405-60]
2. NCCN1Cc2ccccc2C(CNC2CCCCC2)C1c1ccc2c(c1)OCCO2 (stereo not drawn) [TRG 2405-3]

[41.4, 46.8]
